system: 4T1 R8 cells; assay: Cell viability assay, 4T1 R8 cells; assay type: cell-based, mouse; conditions: Mus musculus, 72 hr, drug alone, read-out: IC50 (nM), Single
VALUE TYPE: IC50 (nM)

C/C(=C\c1csc(C)n1)[C@@H]1C[C@@H]2O[C@]2(C)CCC[C@H](C)[C@H](O)[C@@H](C)C(=O)C(C)(C)[C@@H](O)CC(=O)N1 [Ixabepilone, ixabepilone] : 234
CC(=O)O[C@H]1C(=O)[C@@]2(C)[C@H]([C@H](OC(=O)c3ccccc3)[C@]3(O)C[C@H](OC(=O)[C@H](O)[C@@H](NC(=O)c4ccccc4)c4ccccc4)C(C)=C1C3(C)C)[C@]1(OC(C)=O)CO[C@@H]1C[C@@H]2O : 1120
CC(=O)O[C@@]12CO[C@@H]1C[C@H](O)[C@@]1(C)C(=O)[C@H](O)C3=C(C)[C@@H](OC(=O)[C@H](O)[C@@H](NC(=O)OC(C)(C)C)c4ccccc4)C[C@@](O)([C@@H](OC(=O)c4ccccc4)[C@H]21)C3(C)C : 208
CCC1=C[C@@H]2CN(C1)Cc1c([nH]c3ccccc13)[C@@](C(=O)OC)(c1cc3c(cc1OC)N(C)[C@H]1[C@@](O)(C(=O)OC)[C@H](OC(C)=O)[C@]4(CC)C=CCN5CC[C@]31[C@@H]54)C2 : 104
C=C1C[C@@H]2CC[C@@]34C[C@H]5O[C@H]6[C@@H](O3)[C@H]3O[C@H](CC[C@@H]3O[C@H]6[C@H]5O4)CC(=O)C[C@@H]3[C@@H](OC)[C@@H](C[C@H](O)CN)O[C@H]3C[C@H]3O[C@@H](CC[C@@H]1O2)C[C@@H](C)C3=C : 284

* * *

target: KIF2C (Homo sapiens, UniProt Q99661); construct: KIF2C (216-598 a.a.); 6xHis (C); assay: In vitro validation: KIF2C kinesin activity, malachite green-based phosphate colorimetric assay; details: concentration that inhibits 50% of KIF2C activity
Sequence (Q99661 216-598): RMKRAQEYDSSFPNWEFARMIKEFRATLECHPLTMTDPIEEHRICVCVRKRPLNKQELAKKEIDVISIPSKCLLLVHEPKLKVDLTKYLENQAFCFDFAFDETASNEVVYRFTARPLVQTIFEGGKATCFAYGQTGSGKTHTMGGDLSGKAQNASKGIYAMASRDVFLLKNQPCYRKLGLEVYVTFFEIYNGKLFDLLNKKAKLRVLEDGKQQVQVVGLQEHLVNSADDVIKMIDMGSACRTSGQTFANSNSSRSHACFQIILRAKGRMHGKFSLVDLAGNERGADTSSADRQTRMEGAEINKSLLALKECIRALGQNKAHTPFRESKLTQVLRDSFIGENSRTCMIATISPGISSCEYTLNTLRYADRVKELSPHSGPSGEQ
pEC50: −log10 of the molar value.
VALUE TYPE: pEC50

CC1=C(C(=O)OC(C)C)C(c2ccc(F)cc2)n2c(s/c(=C\c3ccc(OCC(=O)N4CCN(C)CC4)cc3)c2=O)=N1 (stereo not shown) : < 4.00
CC1=C(C(=O)OC(C)C)C(c2ccc(Cl)cc2)n2c(s/c(=C\c3ccc(F)cc3)c2=O)=N1 (stereo not shown) : < 4.00
CCN1CCN(C(=O)COc2ccc(/C=c3\sc4n(c3=O)C(c3ccc(N(C)C)cc3)C(C(=O)OC(C)C)=C(C)N=4)cc2)CC1 (stereo not shown) : > 4.30
COC(=O)C1=C(C)N=c2s/c(=C\c3ccc(OCC(=O)N4CCN(C)CC4)cc3)c(=O)n2C1c1ccc(Cl)cc1 (stereo not shown) : 4.00 to 4.30
CC1=C(C(=O)OC(C)(C)C)C(c2ccc(Cl)cc2)n2c(s/c(=C\c3ccc(OCC(=O)O)cc3)c2=O)=N1 (stereo not shown) : 4.00 to 4.30
COc1ccc(/C=c2\sc3n(c2=O)C(c2ccc(Cl)cc2)C(C(=O)OC(C)C)=C(C)N=3)cc1 (stereo not shown) : < 4.00
CC1=C(C(=O)OC(C)C)C(c2ccc(N(C)C)cc2)n2c(s/c(=C\c3ccc(OCC(=O)N4CCN(C)CC4)cc3)c2=O)=N1 (stereo not shown) : > 4.30
